# Tested on: A. baumannii clinical isolates
# Method Description: microbe, parasite or virus in culture
# Test Context: Acinetobacter baumannii
Endpoint: MIC90

See these solved cases before continuing.
C[C@H]1COc2c(N3CCN(C)CC3)c(F)cc3c(=O)c(C(=O)O)cn1c23 [LEV, levofloxacin, reference compound]	> 32 µg/mL
C[C@@H](O)[C@H]1C(=O)N2C(C(=O)O)=C(S[C@@H]3CN[C@H](C(=O)N(C)C)C3)[C@H](C)[C@H]12 [Meropenem, meropenem, reference compound]	> 16 µg/mL
CC(C)(O/N=C(\C(=O)N[C@@H]1C(=O)N2C(C(=O)[O-])=C(C[n+]3ccccc3)CS[C@H]12)c1csc(N)n1)C(=O)O [Ceftazidime, ceftazidime, reference compound]	> 32 µg/mL

Request: Give the reported MIC90 for this compound. CNC(C)C1CCC(N)C(OC2C(N)CC(N)C(OC3OCC(C)(O)C(NC)C3O)C2O)O1 (stereo not shown) [Gentamicin, gentamicin, reference compound]
Result: > 32 µg/mL
